# Tested on: mouse Smad7 mRNA
# Assay: Murine Smad7 mRNA expression after oral administration in BALB/c mice (Example 11)
# Format: in vivo
# Condition description: 500 mg/kg/day oral for 3 weeks, 24 hours after last dose, colon
k = constrained ethyl (cEt); d = 2'-deoxy (DNA)
Could you please report measured Mouse Smad7 mRNA expression (% inhibition), Colon for the items listed next?
Your answer should be a number followed by the unit of measure.

830025 (antisense TTTGTAAATCGAAAGC; 3-10-3 cEt gapmer, further chemistry not given here) [compound 830025] :: 39 % inhibition
790615 (CCAATGAGAATGCTTC; 3-10-3 cEt gapmer, further chemistry not given here) [compound 790615] :: 72 % inhibition
772797 (AATGAACTGTATCTCC; sugars from the 5' end k3 d10 k3, all phosphorothioate, methylation of C not given here) [compound 772797] :: 1 % inhibition

Query substance follows.
Short answer for 798781 (CGTAAGATTCACAGCA; 3-10-3 cEt gapmer, further chemistry not given here) [compound 798781] : Mouse Smad7 mRNA expression (% inhibition), Colon was 0 % inhibition
